Entries and their AC50 values follow.
Biological target: D(1A) dopamine receptor (Homo sapiens, UniProt P21728); further: assay procedure not described here
Sequence (P21728 whole entry): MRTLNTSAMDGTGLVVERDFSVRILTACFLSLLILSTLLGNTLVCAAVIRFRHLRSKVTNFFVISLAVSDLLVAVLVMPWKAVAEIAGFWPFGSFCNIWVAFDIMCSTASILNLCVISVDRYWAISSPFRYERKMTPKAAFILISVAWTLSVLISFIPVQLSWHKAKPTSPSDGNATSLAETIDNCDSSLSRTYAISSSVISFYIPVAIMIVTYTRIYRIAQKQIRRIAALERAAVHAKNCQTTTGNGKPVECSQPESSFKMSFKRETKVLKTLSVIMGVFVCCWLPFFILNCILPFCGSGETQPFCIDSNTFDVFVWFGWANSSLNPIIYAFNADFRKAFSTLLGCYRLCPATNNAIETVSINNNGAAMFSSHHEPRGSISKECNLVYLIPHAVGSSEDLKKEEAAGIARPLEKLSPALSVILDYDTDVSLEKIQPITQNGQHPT
Format: functional, cell-based

>>> result("COc1ccc2nc3cc(Cl)ccc3c(Nc3cc(CN4CCCC4)c(O)c(CN4CCCC4)c3)c2n1")
"> 30 µM"
>>> result("CC(=O)O[C@]1(C(C)=O)CC[C@H]2[C@@H]3C=C(C)C4=CC(=O)CC[C@@H]4[C@H]3CC[C@@]21C [NOMEGESTROL ACETATE]")
"> 30 µM"
>>> result("COc1cc2nccc(Oc3ccc(NC(=O)C4(C(=O)Nc5ccc(F)cc5)CC4)cc3)c2cc1OC [CABOZANTINIB]")
"> 30 µM"

query: Field request: AC50 | item: Cc1cc2cc3c(C)cc(=O)oc3c(C)c2o1
result: > 10 µM

query: Field request: AC50 | item: CO[C@H]1/C=C/O[C@@]2(C)Oc3c(C)c(O)c4c(O)c(c(/C=N/N5CCN(C)CC5)c(O)c4c3C2=O)NC(=O)/C(C)=C\C=C\[C@H](C)[C@H](O)[C@@H](C)[C@@H](O)[C@@H](C)[C@H](OC(C)=O)[C@@H]1C
result: > 30 µM

query: Field request: AC50 | item: CN(C)CC[C@@H](c1ccc(Cl)cc1)c1ccccn1
result: > 30 µM

query: Field request: AC50 | item: C[C@H](Cc1ccc(O)c(O)c1)[C@@H](C)Cc1ccc(O)c(O)c1
result: > 10 µM

* * *

Biological target: Glucocorticoid receptor (Homo sapiens); further: assay procedure not described here
Sequence (P04150 whole entry): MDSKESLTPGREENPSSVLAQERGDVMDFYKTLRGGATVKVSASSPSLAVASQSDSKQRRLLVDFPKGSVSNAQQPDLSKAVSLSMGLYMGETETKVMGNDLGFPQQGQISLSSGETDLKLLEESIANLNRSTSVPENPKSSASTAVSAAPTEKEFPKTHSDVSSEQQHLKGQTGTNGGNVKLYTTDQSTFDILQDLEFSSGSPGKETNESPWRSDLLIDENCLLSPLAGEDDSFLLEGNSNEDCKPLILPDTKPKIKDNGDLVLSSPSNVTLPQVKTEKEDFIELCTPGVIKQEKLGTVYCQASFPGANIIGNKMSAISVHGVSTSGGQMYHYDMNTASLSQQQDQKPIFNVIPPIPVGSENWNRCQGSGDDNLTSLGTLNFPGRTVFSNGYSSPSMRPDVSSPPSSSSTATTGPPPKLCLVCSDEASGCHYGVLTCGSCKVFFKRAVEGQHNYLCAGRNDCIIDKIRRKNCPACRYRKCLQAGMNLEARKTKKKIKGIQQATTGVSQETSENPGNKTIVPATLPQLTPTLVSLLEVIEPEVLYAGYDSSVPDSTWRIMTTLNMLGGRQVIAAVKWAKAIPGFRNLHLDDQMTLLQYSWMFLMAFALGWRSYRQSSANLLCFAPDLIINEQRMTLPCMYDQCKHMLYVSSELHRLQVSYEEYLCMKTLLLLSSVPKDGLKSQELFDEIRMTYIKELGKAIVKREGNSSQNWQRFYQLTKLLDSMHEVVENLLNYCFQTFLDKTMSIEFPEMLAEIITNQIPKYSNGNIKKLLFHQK
PROPERTY MEASURED: AC50

>>> result("CC(C)Cc1ccc(C(C)C(=O)O)cc1 (stereo unspecified)")
"> 30 µM"
>>> result("CC(C)COCC(CN(Cc1ccccc1)c1ccccc1)N1CCCC1 (stereo unspecified)")
"> 30 µM"

query: Field request: AC50 | item: O=C(O)CCNC(=O)c1ccccc1
result: > 30 µM

query: Field request: AC50 | item: CCC(COC(=O)c1cc(OC)c(OC)c(OC)c1)(c1ccccc1)N(C)C (stereo unspecified)
result: > 30 µM

query: Field request: AC50 | item: O=C1CN(/N=C/c2ccc(-c3ccc([N+](=O)[O-])cc3)o2)C(O)=N1
result: > 10 µM

query: Field request: AC50 | item: CCOC(=O)c1cncn1[C@H](C)c1ccccc1 [ETOMIDATE]
result: > 10 µM

query: Field request: AC50 | item: CCC(C)C(CC)C(N)=O (stereo unspecified) [VALNOCTAMIDE]
result: > 30 µM

query: Field request: AC50 | item: CCCCCC(=O)O[C@]1(C(C)=O)CC[C@H]2[C@@H]3CCC4=CC(=O)CC[C@]4(C)[C@H]3CC[C@@]21C [HYDROXYPROGESTERONE CAPROATE]
result: 0.007 µM

query: Field request: AC50 | item: OC1(c2ccc(Cl)cc2)c2ccccc2C2=NCCN21 (stereo unspecified)
result: > 30 µM

* * *

Entries and their AC50 values follow.
Biological target: Gamma-aminobutyric acid receptor subunit alpha-1 (Rattus norvegicus); further: assay procedure not described here
Sequence (P62813 whole entry): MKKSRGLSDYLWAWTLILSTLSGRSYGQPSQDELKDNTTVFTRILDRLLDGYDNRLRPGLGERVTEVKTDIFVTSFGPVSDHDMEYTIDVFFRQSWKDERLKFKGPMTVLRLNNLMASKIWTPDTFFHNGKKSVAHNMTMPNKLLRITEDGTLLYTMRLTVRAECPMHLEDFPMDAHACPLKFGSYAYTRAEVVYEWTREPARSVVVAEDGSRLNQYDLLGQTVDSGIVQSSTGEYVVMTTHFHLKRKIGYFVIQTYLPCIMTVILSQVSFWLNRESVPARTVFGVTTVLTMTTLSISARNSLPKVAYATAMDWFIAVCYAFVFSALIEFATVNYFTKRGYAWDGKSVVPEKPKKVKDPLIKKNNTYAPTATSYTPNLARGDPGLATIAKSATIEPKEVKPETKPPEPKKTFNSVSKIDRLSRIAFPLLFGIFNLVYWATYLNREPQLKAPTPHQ
Type: functional

>>> result("O=C(O)CCNC(=O)c1ccccc1")
"> 30 µM"
>>> result("CC(C(=O)O)c1ccc(-c2ccccc2)c(F)c1 (centres undefined)")
"> 10 µM"
>>> result("CC(C(=O)O)c1ccc(CC2CCCC2=O)cc1 (centres undefined)")
"> 30 µM"
>>> result("CCN1CCCC1CNC(=O)c1cc(S(=O)(=O)CC)c(N)cc1OC (centres undefined) [AMISULPRIDE]")
"> 30 µM"
>>> result("CC1(C)S[C@@H]2[C@H](NC(=O)[C@H](N)c3ccccc3)C(=O)N2[C@H]1C(=O)OCOC(=O)[C@@H]1N2C(=O)C[C@H]2S(=O)(=O)C1(C)C")
"> 30 µM"

query: Field request: AC50 | item: CCN(CC)C(=O)Nc1ccc(OCC(O)CNC(C)(C)C)c(C(C)=O)c1 (centres undefined)
result: > 30 µM

query: Field request: AC50 | item: CCCN(CCC)C(=O)Cc1c(-c2ccc(Cl)cc2)nc2ccc(Cl)cn12
result: 0.0431 µM

query: Field request: AC50 | item: O=C1CN=C(c2ccccn2)c2cc(Br)ccc2N1
result: 0.11 µM

query: Field request: AC50 | item: CC1=C(C)C(=O)C(C(CCCCCC(=O)O)c2ccccc2)=C(C)C1=O (centres undefined)
result: > 30 µM
